Value source: patent USRE40086E1

- Test system: S. aureus UBMS 88-7 (tetK)
- Measurement protocol: MIC, agar dilution
- Assay type: cell-based
- Condition info: S. aureus UBMS 88-7 (tetK)
Simple rule here: MIC less than 4 µg/mL is yes (1), otherwise no (0).

# Molecule, Answer label
records = [
    ("COc1ccc(C(=O)Nc2cc(N(C)C)c3c(c2O)C(=O)C2=C(O)C4(O)C(=O)C(C(N)=O)=C(O)C(N(C)C)C4CC2C3)cc1 (stereo not shown) [Q]", "no (0)"),
    ("CN(C)c1cc(NS(=O)(=O)c2cccs2)c(O)c2c1CC1CC3C(N(C)C)C(O)=C(C(N)=O)C(=O)C3(O)C(O)=C1C2=O (stereo not shown) [DD]", "yes (1)"),
    ("CN(C)c1cc(NS(C)(=O)=O)c(O)c2c1CC1CC3C(N(C)C)C(O)=C(C(N)=O)C(=O)C3(O)C(O)=C1C2=O (stereo not shown) [FF]", "no (0)"),
    ("CCN(CC)c1cc(NC=O)c(O)c2c1C[C@H]1C[C@H]3[C@H](N(C)C)C(O)=C(C(N)=O)C(=O)[C@@]3(O)C(O)=C1C2=O.O=S(=O)(O)O.O=S(=O)(O)O [D]", "yes (1)"),
    ("CN(C)C1C(O)=C(C(N)=O)C(=O)C2(O)C(O)=C3C(=O)c4c(O)c(NC=O)cc(I)c4CC3CC12.O=S(=O)(O)O (stereo not shown) [G]", "no (0)"),
    ("CN(C)c1cc(NS(=O)(=O)c2ccc(Cl)cc2)c(O)c2c1CC1CC3C(N(C)C)C(O)=C(C(N)=O)C(=O)C3(O)C(O)=C1C2=O (stereo not shown) [EE]", "yes (1)"),
    ("CN(C)c1cc(NC(=O)c2ccc(N)cc2)c(O)c2c1CC1CC3C(N(C)C)C(O)=C(C(N)=O)C(=O)C3(O)C(O)=C1C2=O.O=S(=O)(O)O (stereo not shown) [X]", "no (0)"),
    ("CN(C)c1cc(NC(=O)c2ccco2)c(O)c2c1CC1CC3C(N(C)C)C(O)=C(C(N)=O)C(=O)C3(O)C(O)=C1C2=O (stereo not shown) [Y]", "no (0)"),
    ("CC(=O)Nc1cc(I)c2c(c1O)C(=O)C1=C(O)C3(O)C(=O)C(C(N)=O)=C(O)C(N(C)C)C3CC1C2.O=S(=O)(O)O (stereo not shown) [H]", "no (0)"),
    ("CC(=O)OCC(=O)Nc1cc(N(C)C)c2c(c1O)C(=O)C1=C(O)[C@]3(O)C(=O)C(C(N)=O)=C(O)[C@@H](N(C)C)[C@@H]3C[C@@H]1C2 [K]", "no (0)"),
]
